Listed here: items and their measured pIC50.
# SYSTEM TESTED: human recombinant H-PGDS (Homo sapiens, UniProt O60760)
# Sequence (O60760 whole entry): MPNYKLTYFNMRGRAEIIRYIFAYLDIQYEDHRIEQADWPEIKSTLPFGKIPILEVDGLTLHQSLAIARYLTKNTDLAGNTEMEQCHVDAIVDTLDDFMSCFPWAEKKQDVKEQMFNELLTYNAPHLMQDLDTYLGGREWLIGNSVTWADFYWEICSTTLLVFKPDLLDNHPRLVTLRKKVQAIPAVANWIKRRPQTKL
# PROTOCOL TEXT: Fluorescence Intensity h-PGDS TBA Enzyme Assay
# Assay type: biochemical
# CONDITION DETAILS: 1:175,000 human recombinant H-PGDS, highest inhibitor concentration typically 1 μM
Field pIC50 (float): negative decimal logarithm of the concentration in molar.

>>> df
                                   compound  endpoint_label  assay_value
0    COC(C)(C)CNC(=O)c1ccc(-c2cccc(F)c2)nc1           pIC50         6.42
1   CCC1CCN(CCNC(=O)c2ccc(-c3ccccc3)nc2)CC1           pIC50         7.70
2  O=C(NCCc1cn2cccnc2n1)c1ccc(-c2cccc(F)c2)nc1           pIC50         7.89

Please find the next compound below.
The recorded pIC50 for entry CC(NC(=O)c1ccc(-c2ccc(F)cc2)nc1)c1ccccc1 (centres unmarked) equals 6.82

* * *

# SYSTEM TESTED: human recombinant H-PGDS (Homo sapiens, UniProt O60760)
# PROTOCOL TEXT: Fluorescence Intensity h-PGDS TBA Enzyme Assay
# Assay type: biochemical
# CONDITION DETAILS: 1:175,000 human recombinant H-PGDS, highest inhibitor concentration typically 1 μM
ENDPOINT LABEL: IC50 (nM)
All answers are understood in nM, so give the number only.

Illustrative cases are given below, each with its answer.
>>> df
                                   compound  endpoint_label  assay_value
0  CC(=O)N1CCC(CNC(=O)c2ccc(-c3ccccc3)nc2)CC1            IC50         20.9
1  CC(NC(=O)c1ccc(-c2cccc(F)c2)nc1)c1ccccc1 (centres unmarked)            IC50         8.76

// IC50 value for CC(Cn1cccn1)NC(=O)c1ccc(-c2cccc(F)c2)nc1 (centres unmarked) : 33.8

# IC50 (compound: CCCCNC(=O)c1ccc(-c2cccc(F)c2)nc1 [Example 415, N-Butyl-6-(3-fluorophenyl)nicotinamide] ) is 24.5

Record CCOC(=O)C(CNC(=O)c1ccc(-c2ccccc2)nc1)c1c(F)cccc1F (centres unmarked) . Reported IC50: 138

* * *

# SYSTEM TESTED: human recombinant H-PGDS (Homo sapiens)
# PROTOCOL TEXT: Fluorescence Intensity h-PGDS TBA Enzyme Assay
# Assay type: biochemical
# CONDITION DETAILS: 1:175,000 human recombinant H-PGDS, highest inhibitor concentration typically 1 μM
Each entry below carries its reported pIC50.
Worth noting: pIC50 values are minus log10 of concentrations stated in mol/L.

In [3]: df
Out[3]:
                                   compound  endpoint_label  assay_value
0  Cc1noc([C@H]2CC[C@H](CNC(=O)c3ccc(-c4cccc(F)c4)nc3)CC2)n1           pIC50         7.72
1   O=C(NCCNc1ccccc1)c1ccc(-c2ccc(F)cc2)nc1           pIC50         6.39
2  COc1cccc(-c2ccc(C(=O)NCCCN3CCCC3=O)cn2)c1           pIC50         6.20
3  CC(C)OCCCN1CC(CNC(=O)c2ccc(-c3cccc(F)c3)nc2)OCC1=O (stereo not drawn)           pIC50         6.89
4  CCOC(=O)CC(NC(=O)c1ccc(-c2cccc(C)c2)nc1)c1ccc(Cl)cc1 (stereo not drawn)           pIC50         7.25

Record `Cc1ccc(CNC(=O)c2ccc(-c3cccc(F)c3)nc2)cc1` . Reported pIC50: 7.76

Per the record, `O=C(NC[C@H]1COc2ccccc2C1)c1ccc(-c2cccc(F)c2)nc1` has pIC50 of 8.49

Query Cc1ccc2c(c1C)OCCC2NC(=O)c1ccc(-c2cccc(F)c2)nc1 (stereo not drawn) yields pIC50 of 8.48

* * *

# SYSTEM TESTED: human recombinant H-PGDS (Homo sapiens, UniProt O60760)
# PROTOCOL TEXT: Fluorescence Intensity h-PGDS TBA Enzyme Assay
# Assay type: biochemical
# CONDITION DETAILS: 1:175,000 human recombinant H-PGDS, highest inhibitor concentration typically 1 μM
Catalogue of IC50 readings, one per entry.

Examples with their reported IC50 follow.
>>> print(df.to_string())
                                   molecule  assay_value
0     COc1cccc(-c2ccc(C(=O)NC3CCOCC3)cn2)c1      38.7 nM
1  COCCN1CCC2(CC1)CC(NC(=O)c1ccc(-c3cccc(F)c3)nc1)CO2 (stereo not drawn)      25.2 nM
2  O=C(NCC(O)c1ccccc1F)c1ccc(-c2cccc(F)c2)nc1 (stereo not drawn)      10.3 nM
3  CCOC(=O)C1(NC(=O)c2ccc(-c3ccc(F)cc3)nc2)CCOCC1    ≥ 1000 nM
4  COC(=O)c1ccc(CNC(=O)c2ccc(-c3cccc(C)c3)nc2)cc1      95.1 nM

The reported value for CC(NC(=O)c1ccc(-c2ccccc2)nc1)c1ccccc1 (stereo not drawn) [Example 516, 6-Phenyl-N-(1-phenylethyl)nicotinamide] in terms of IC50 is 31.9 nM

# IC50 of `Cc1cc(C)cc(-c2nnc(CCNC(=O)c3ccc(-c4cccc(F)c4)nc3)o2)c1` = 28.3 nM

So for COc1cccc(-c2ccc(C(=O)NC3CCN(Cc4ccc(C)cc4)C3=O)cn2)c1 (stereo not drawn) , the logged IC50 turned out to be 106 nM

Query O=C(NCCC1CCCCO1)c1cnc(-c2cccc(F)c2)c(Cl)c1 (stereo not drawn) yields IC50 of 31.8 nM

molecule O=C(NC1CCN(Cc2ccc(Cl)c(Cl)c2)C1=O)c1ccc(-c2ccc(F)cc2)nc1 (stereo not drawn) , IC50 observed: 896 nM

IC50 in this record for `CCOC(=O)CC[C@H](NC(=O)c1ccc(-c2cccc(F)c2)nc1)C(=O)OCC` : 4.29 nM

Recorded result, COc1cccc(-c2ccc(C(=O)NC(C)c3ccncn3)cn2)c1 (stereo not drawn) , IC50: 578 nM

Measured IC50 of `O=C(NCCN1CCN(Cc2ccccc2)CC1)c1ccc(-c2ccccc2)nc1` : 9.1 nM

// field: IC50; key: `CC(C)(CNC(=O)c1ccc(-c2ccccc2)nc1)N1CCOCC1` ; value = 25.3 nM

`CNC(=O)N1[C@@H]2CC[C@H]1C[C@H](NC(=O)c1ccc(-c3cccc(F)c3)nc1)C2` yielded IC50 of 17 nM

Entry under test: `CCOC(=O)Cc1noc(CNC(=O)c2ccc(-c3cccc(F)c3)nc2)n1` . Its IC50 was 59.2 nM

GET /value?item= `O=C(NCCN1CCN(Cc2ccccc2)CC1)c1ccc(-c2ccc(F)cc2)nc1` &field=IC50 returns ≥ 1000 nM

`O=C(NCc1nncn1C1CCCCC1)c1ccc(-c2cccc(F)c2)nc1` has a reported IC50 of 31.5 nM

The molecule identified as `O=C(NCc1nc2ccccc2s1)c1cnc(-c2cccc(F)c2)c(Cl)c1` registered its IC50 at 59.6 nM

Documented IC50 of `CCCOCCCNC(=O)c1ccc(-c2cccc(F)c2)nc1` : 13.8 nM

Entry `Cc1cc(-c2cnc(C(C)(C)C)nc2CNC(=O)c2ccc(-c3cccc(F)c3)nc2)on1` , IC50 reported as > 1000 nM

* * *

Measured IC50 accompanies every entry in the list below.
# SYSTEM TESTED: human recombinant H-PGDS (Homo sapiens, UniProt O60760)
# PROTOCOL TEXT: Fluorescence Intensity h-PGDS TBA Enzyme Assay
# Assay type: biochemical
# CONDITION DETAILS: 1:175,000 human recombinant H-PGDS, highest inhibitor concentration typically 1 μM
The reply should contain only the number, in nM.

Known results for compounds:
                                   compound  endpoint_label  assay_value
0  C[C@H](CNC(=O)c1ccc(-c2cccc(F)c2)nc1)NC(=O)OCc1ccccc1            IC50         54.3
1        COc1cccc(-c2ccc(C(=O)NC(C)C)cn2)c1            IC50          351
2        CC(C)CNC(=O)c1ccc(-c2cccc(F)c2)nc1            IC50         26.1
3  O=C(NCc1ccccc1)c1ccc(-c2cccc(F)c2)nc1 [Example 432, N-Benzyl-6-(3-fluorophenyl)nicotinamide]            IC50         14.9
4  O=C(NCC1COc2ccccc2C1)c1cnc(-c2cccc(F)c2)c(Cl)c1 (stereo not drawn)            IC50         98.4
5  CCOC(=O)CCCCCNC(=O)c1ccc(-c2cccc(F)c2)nc1            IC50         11.2

For record Cc1ccc2c(c1)C(NC(=O)c1ccc(-c3cccc(F)c3)nc1)CC(C)(C)O2 (stereo not drawn) the listed IC50 is 3.03

Input `COc1ccc(CNC(=O)c2ccc(-c3cc(F)cc(F)c3)nc2)cc1OC` . Output IC50: 10.6

GET /value?item= `CS(=O)(=O)c1ccc(CNC(=O)c2ccc(-c3cccc(F)c3)nc2)cc1` &field=IC50 returns 34.1

Per the records, this compound ( `CS(=O)(=O)c1ccc(CNC(=O)c2ccc(-c3ccc(F)cc3)nc2)cc1` ) has IC50 equal to 687

// IC50 lookup, compound = CCCCNC(=O)c1ccc(-c2ccccc2)nc1 [Example 368, N-Butyl-6-phenylnicotinamide] , result: 16.6
